# method-summary: Stability in Simulated Gastric Fluid (SGF)
# Type: in vitro ADME
# Design: key: % parent compound remaining relative to 0-minute sample
# condition: % remaining @ 1 h
observation-type: SGF (%@ 1 h)
Dear colleague, please return just the value in %@ 1 h, with no unit written.

CC(C)C[C@H](N)C(=O)OCn1c(=O)c2c(ccn2COC(=O)[C@@H](N)CC(C)C)n(CCOC(C)C)c1=S.O=C(O)C(F)(F)F.O=C(O)C(F)(F)F [Example 322]	56

Next item in the queue.
# get_value(readout='SGF', item= CC(C)C[C@@H](N)C(=O)OCn1ccc2c1c(=O)n(CO)c(=S)n2CCOC(C)C.O=C(O)C(F)(F)F [Example 327] )
100
